B1: Hairpin Ribozyme (parent)
chain: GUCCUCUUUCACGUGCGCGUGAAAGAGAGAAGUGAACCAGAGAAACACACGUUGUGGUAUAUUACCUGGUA

Variants of: B1
Assay: self-cleavage, relative activity (ratio to wild type); higher = more cleavage; co-transcriptional
Listing of recorded self-cleavage by entry.

alteration	self-cleavage
G17U A71U	0.815
A30G G69A	0.12
G1U A64G	0.0823
C37G U67G	0.132
G69A U70G	0.325
U52G U62G	0.0994
U2A A31G	0.334
G51C A61C	0.0996
A30G A71U	0.225
A22G A44G	0.193
A26C U67A	0.0843
C38G U55G	0.193
G15C A41U	1.28
C50A G57C	0.133
G29C G68C	0.124
G29U A47G	0.0517
C4U G29C	0.108
A22C G25U	0.17
A41G U60C	1.23
A11G C66U	0.619
C3U G25A	0.205
G42U C48U	0.132
C12A A59C	0.149
U20G C48G	0.179
U33A G40U	0.126
A31G G34U	1.54
G54A G57A	0.182
A31G U58G	0.404
G1C C3U	0.18
C4U C12G	0.259
G21A G68C	0.15
U5G U55A	0.139
G15U C46A	0.167
A23G G34C	1.07
C3G U67C	0.104
A26G A31C	0.114
G1C G32C	0.116
U2C U63A	0.115
C16G G29A	0.202
G19U G21A	0.875
A30C C50A	0.0998
A43G	0.148
G32U C48G	0.188
A47G U58G	0.119
C38G A59G	0.162
G1A G34A	0.18
U8A A59C	0.165
A45C G51C	0.0857
C6A U9C	0.262
C4A A24G	0.143
G56U U60A	0.219
G34U U52C	0.926
U20G A45U	0.117
A43C U70G	0.12
U20A A26U	0.611
A28U A47U	0.125
U7C A71U	0.592
G19U A59U	0.213
U2C C3A	0.114
C4U A36G	0.465
C37U A43C	0.126
G40A G42A	0.0412
A44U A61C	0.0833
G15U C65U	0.33
A22U C38A	0.155
U14G G40U	0.2
U20C C65G	0.472
C38A C65U	0.204
C50G G69C	0.227
A11C C66U	0.408
U7A A23G	0.866
G1C G27U	0.142
U55G G57C	0.126
A26G G40U	0.128
G40C C50A	0.0683
G1A G21A	0.154
A45G G57C	0.0828
G15A A31C	0.151
G19A A35U	0.607
C4U A22G	0.236
A49G U58A	0.217
U7C A24C	1.04
G17A G25C	0.552
U20G A71U	0.605
U58C U70A	0.897
U2C U20G	0.0615
G19C G40A	0.343
G19U A71G	1.02
U53G A61C	0.0932
G27A G68A	0.241
C46U U63A	0.0217
